tested on: Saccharomyces cerevisiae; assay: protein stability index of tFT-peptide fusion (C-terminal peptide) (PSI (0-1 scale)); higher = more stable (slower turnover); conditions: genetic background: wild type; temperature: 30 C;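 further: PSI is a weighted mean of sequencing reads over stability bins, variants kept only with over 10 reads, mCherry proximal and sfGFP distal, peptide attached via GGGS linker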
Returns TRUE if the recorded protein stability index is greater than or equal to 0.7, and FALSE otherwise.

[[record]]
biopolymer_sequence = "FFFFPVYFIFVV"
group_label = "FALSE"


Decide: is the reported value of protein stability index for ISLSSLYVVMYV equal to or greater than 0.7?
FALSE

Decide: is the reported value of protein stability index for LWISVDEGQLCH equal to or greater than 0.7?
FALSE

Decide: is the reported value of protein stability index for VGVGGVGGFFGC equal to or greater than 0.7?
TRUE

Decide: is the reported value of protein stability index for TLPPPSLPPSSS equal to or greater than 0.7?
FALSE

Decide: is the reported value of protein stability index for LVRLNSHRYTSV equal to or greater than 0.7?
FALSE

Decide: is the reported value of protein stability index for PLLLPLFSSSPP equal to or greater than 0.7?
TRUE

Decide: is the reported value of protein stability index for PPPSSPTSGHSP equal to or greater than 0.7?
TRUE

Decide: is the reported value of protein stability index for GIRAVRYFNSCC equal to or greater than 0.7?
FALSE

Decide: is the reported value of protein stability index for SLFRVAFLYVQV equal to or greater than 0.7?
FALSE

Decide: is the reported value of protein stability index for VGCLNCWLPFLG equal to or greater than 0.7?
FALSE

Decide: is the reported value of protein stability index for PTSLPLPPPSLS equal to or greater than 0.7?
TRUE

Decide: is the reported value of protein stability index for PPLDLPFPSRSI equal to or greater than 0.7?
TRUE

Decide: is the reported value of protein stability index for VCGSIRVIAWGD equal to or greater than 0.7?
FALSE

Decide: is the reported value of protein stability index for CSHSLVLRFCPF equal to or greater than 0.7?
FALSE

---

test system: Saccharomyces cerevisiae; test: protein stability index of tFT-peptide fusion (C-terminal peptide) (PSI (0-1 scale)); higher = more stable (slower turnover); settings: genetic background: wild type; temperature: 30 C
result type: protein stability index

[[record]]
biopolymer_sequence = "SSSPPPPSLAPP"
result_type = "protein stability index"
measured_result = 0.693


For LPRSASLHVRPH , write its protein stability index.
0.707

For GCPRSCYIPSSV , write its protein stability index.
0.72

For FPPLLFSSPPLP , write its protein stability index.
0.683

---

tested on: Saccharomyces cerevisiae; test: protein stability index of tFT-peptide fusion (C-terminal peptide) (PSI (0-1 scale)); higher = more stable (slower turnover); conditions: genetic background: das1 deletion; temperature: 30 C
result type: protein stability index
Just the number, please, no unit after it.

Examples from the recorded data:
[[record]]
biopolymer_sequence = "VGVVLWVWGLGD"
tested_system = "Saccharomyces cerevisiae"
measured_result = 0.409

[[record]]
biopolymer_sequence = "DDVRFLLWGLCC"
tested_system = "Saccharomyces cerevisiae"
measured_result = 0.398


For FVRSVFFCVSVG , write its protein stability index.
0.396

---

test system: Saccharomyces cerevisiae; test: protein stability index of tFT-peptide fusion (C-terminal peptide) (PSI (0-1 scale)); higher = more stable (slower turnover); conditions: genetic background: wild type; temperature: 37 C
Each entry below carries its recorded protein stability index.
Just the number, please, no unit after it.

[[record]]
biopolymer_sequence = "GWGVFFVMRIQV"
result_type = "protein stability index"
measured_result = 0.301

[[record]]
biopolymer_sequence = "LRFMLLSFLVIL"
result_type = "protein stability index"
measured_result = 0.266

[[record]]
biopolymer_sequence = "NDSSWEVSLMVG"
result_type = "protein stability index"
measured_result = 0.736

[[record]]
biopolymer_sequence = "LFAIFLVVLLFR"
result_type = "protein stability index"
measured_result = 0.209

[[record]]
biopolymer_sequence = "LCLLCWIPCSFR"
result_type = "protein stability index"
measured_result = 0.616

[[record]]
biopolymer_sequence = "LCVVVICCLMAR"
result_type = "protein stability index"
measured_result = 0.216

[[record]]
biopolymer_sequence = "WSCVGLWGRFCC"
result_type = "protein stability index"
measured_result = 0.57

[[record]]
biopolymer_sequence = "LGRFHLACLLFL"
result_type = "protein stability index"
measured_result = 0.543


For CLFHQFITLLVN , write its protein stability index.
0.0523

For FFFFSMFSFFIP , write its protein stability index.
0.531

For GFVLLCFCCRTW , write its protein stability index.
0.426

For CSPAFRPIVFVL , write its protein stability index.
0.176

For PGRHSVRFVFVC , write its protein stability index.
0.143

For AGESLRAIAVLY , write its protein stability index.
0.477

For FCVVFFLSLVFL , write its protein stability index.
0.49

For FVWAVGLVSASV , write its protein stability index.
0.52

For VIYYVRVGLVLS , write its protein stability index.
0.126

For FCVLLFCAVSDL , write its protein stability index.
0.398

For RWGLFIGIVIGF , write its protein stability index.
0.317

For VGVVVVGDVLVW , write its protein stability index.
0.402

Data origin: the supplement of paper PMC10724198
